Species: Homo sapiens
ASSAY_METHOD_TEXT: Inhibition of ADP (5 uM) induced platelet aggregation in human platelet rich plasma
Type: functional, organism-based
REPORTED_CONDITIONS: Homo sapiens, Plasma
pIC50: −log10 of the molar value.
Class label 1: pIC50 at least 5. Class label 0: pIC50 below 5.

O=C(O)COc1cccc2c(CCCSC(c3ccccc3)c3ccccc3)coc12 : label 1

Evaluate O=C(O)COc1cccc2c(CCSC(c3ccccc3)c3ccccc3)coc12 : pIC50 at minimum 5?
label 1

Evaluate O=C(O)COc1cccc2c(CCSC(c3ccccc3)(c3ccccc3)C(F)(F)F)c(CO)oc12 : pIC50 at minimum 5?
label 1
